- testDetails: photoluminescence quantum yield (fraction); solvent given as SMILES
- conditionLabel: in CCO
resultType: photoluminescence quantum yield

[[record]]
compound = "CC1(C)CC(/C=C/c2ccc(N3CCOCCOCCOCCOCC3)cc2)=CC(=C(C#N)C#N)C1"
resulttype = "photoluminescence quantum yield"
measuredvalue = 0.111

[[record]]
compound = "CCN(CC)c1ccc(/C=C/C2=[O+][B-](F)(F)Oc3c2c(=O)oc2cc(N(CC)CC)ccc32)cc1"
resulttype = "photoluminescence quantum yield"
measuredvalue = 0.044

[[record]]
compound = "CC1(C)CC(=O)C2=C(C1)Oc1ccc3ccc(O)cc3c1C2c1ccccn1 (stereo unspecified)"
resulttype = "photoluminescence quantum yield"
measuredvalue = 0.0035

[[record]]
compound = "CCC1(CC)c2cc(C=C(C#N)C#N)ccc2-c2ccc(N(C)C)cc21"
resulttype = "photoluminescence quantum yield"
measuredvalue = 0.18

[[record]]
compound = "C=C(C)C(CN1C(=O)c2cccc3c2c(cc2oc(C)nc23)C1=O)OO (stereo unspecified)"
resulttype = "photoluminescence quantum yield"
measuredvalue = 0.096

[[record]]
compound = "COC(=O)c1nc(-c2ccc(OC)cc2)oc1C"
resulttype = "photoluminescence quantum yield"
measuredvalue = 0.41

[[record]]
compound = "Cc1c(C)n2c(COC(=O)CNC(=O)OC(C)(C)C)c(C)c(=O)n2c1=O"
resulttype = "photoluminescence quantum yield"
measuredvalue = 0.63

[[record]]
compound = "CC(C)[Si]1(C(C)C)c2ccccc2-c2ccc(N(C)C)cc21"
resulttype = "photoluminescence quantum yield"
measuredvalue = 0.11

[[record]]
compound = "C#Cc1ccc2cc(/C=C/C(=O)OCC)c(=O)oc2c1"
resulttype = "photoluminescence quantum yield"
measuredvalue = 0.36

[[record]]
compound = "COc1ccc(-c2csc(-c3ccncc3)n2)cc1"
resulttype = "photoluminescence quantum yield"
measuredvalue = 0.22

[[record]]
compound = "CCC1(CC)c2cc(C=O)ccc2-c2ccc(N(C)C)cc21"
resulttype = "photoluminescence quantum yield"
measuredvalue = 0.64

